- protocol_summary: Index of bioavailability: plasma thrombin time (TT) time course after i.v. bolus and oral treatment of rats
- Type: in vivo, rat
- conditions: dose-adjusted AUC of plasma TT, p.o. (fasted conscious rats) relative to i.v. bolus (anesthetized rats)
readout_kind: Index of Bioavailability, Percent Relative Activity (%)

compound	result
CNC(CC(=O)N1CCC[C@H]1C(=O)N[C@H](C=O)CCCNC(=N)N)C1CCCCC1.CNC(CC(=O)N1CCC[C@H]1C(=O)N[C@H](C=O)CCCNC(=N)N)C1CCCCC1.Cl.Cl.Cl.Cl.O (stereo partly shown) [Example 2]	19
CNC(CC(=O)N1CCC[C@H]1C(=O)N[C@H](C=O)CCCNC(=N)N)c1ccccc1.Cl.Cl.O.O (stereo partly shown) [Example 1]	28
CNCC(Cc1ccccc1)C(=O)N1CCC[C@H]1C(=O)N[C@H](C=O)CCCNC(=N)N.Cl.Cl.O (stereo partly shown) [Example 3]	8
Cl.Cl.Cl.N=C(N)NCCC[C@@H](C=O)NC(=O)[C@@H]1CCCN1C(=O)C1CCCCC1N.O (stereo partly shown) [Example 8]	15

---

Entries and their Human Thrombin Inhibition Levels, Kass × 10^6 (l/mole) values follow.
- tested_target: human thrombin (Homo sapiens)
- protocol_summary: Inhibition of the amidase activity of human thrombin (chromogenic substrate, Kass)
- Type: biochemical
- conditions: apparent association constant, mean over a range of test compound concentrations; purified human thrombin, substrate N-benzoyl-Phe-Val-Arg-p-nitroanilide, pH 7.4
readout_kind: Human Thrombin Inhibition Levels, Kass × 10^6 (l/mole)

compound	result
Cl.Cl.N=C(N)NCCC[C@@H](C=O)NC(=O)[C@@H]1CCCN1C(=O)C1CCCNC1.O (some centres unmarked)	2 × 10^6 l/mole
CNC(CC(=O)N1CCC[C@H]1C(=O)N[C@H](C=O)CCCNC(=N)N)C1CCCCC1.CNC(CC(=O)N1CCC[C@H]1C(=O)N[C@H](C=O)CCCNC(=N)N)C1CCCCC1.Cl.Cl.Cl.Cl.O (some centres unmarked)	85 × 10^6 l/mole
CNCC(Cc1ccccc1)C(=O)N1CCC[C@H]1C(=O)N[C@H](C=O)CCCNC(=N)N.Cl.Cl.O (some centres unmarked)	12 × 10^6 l/mole
Cl.Cl.N=C(N)NCCC[C@@H](C=O)NC(=O)[C@@H]1CCCN1C(=O)CN1CCCCC1.O	1 × 10^6 l/mole
Cl.Cl.N=C(N)NCCC[C@@H](C=O)NC(=O)[C@@H]1CCCN1C(=O)C1CNC2CCCCC21.O (some centres unmarked)	11 × 10^6 l/mole
CNC1CCCCC1C(=O)N1CCC[C@H]1C(=O)N[C@H](C=O)CCCNC(=N)N.Cl.Cl (some centres unmarked)	18.4 × 10^6 l/mole
Cl.Cl.Cl.N=C(N)NCCC[C@@H](C=O)NC(=O)[C@@H]1CCCN1C(=O)C1CCCCC1N.O (some centres unmarked)	39 × 10^6 l/mole
CNC(CC(=O)N1CCC[C@H]1C(=O)N[C@H](C=O)CCCNC(=N)N)c1ccccc1.Cl.Cl.O.O (some centres unmarked)	70 × 10^6 l/mole

Source: patent US5488037A
